biological target: Vasopressin V1a receptor (Homo sapiens, UniProt P37288); assay: Agonist activity at recombinant human vasopressin V1a receptor expressed in HEK293 cells by luciferase reporter gene assay; assay type: functional, cell-based; settings: read-out: EC50
Sequence (P37288 whole entry): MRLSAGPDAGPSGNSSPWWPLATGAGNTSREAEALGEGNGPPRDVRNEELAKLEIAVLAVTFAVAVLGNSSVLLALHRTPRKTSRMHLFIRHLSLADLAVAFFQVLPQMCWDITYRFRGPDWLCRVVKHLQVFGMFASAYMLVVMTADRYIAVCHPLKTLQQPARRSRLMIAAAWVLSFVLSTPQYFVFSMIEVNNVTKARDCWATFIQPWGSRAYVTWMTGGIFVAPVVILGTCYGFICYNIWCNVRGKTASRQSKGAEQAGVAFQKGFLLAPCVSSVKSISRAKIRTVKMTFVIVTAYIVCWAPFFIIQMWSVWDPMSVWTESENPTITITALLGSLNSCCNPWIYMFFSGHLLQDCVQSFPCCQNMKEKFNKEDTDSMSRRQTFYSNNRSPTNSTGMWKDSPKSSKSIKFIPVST
Numbered stars: 1 amine (or outer) side, 2 acyl side, 3 side chain; on linkers, the order of the positions; unused ones are H or OH. Bridge positions count the residues as written; N and C are the ends. Square brackets hold non-standard residues; d marks the D form. Peptide text beside a SMILES is read from it. Ala(2-furyl) = N[C@@H](Cc1ccco1)C(=O)O; Orn(iPr) = CC(C)NCCC[C@H](N)C(=O)O; X1 = CCNCCC[C@H](N[*:1])C(=O)[*:2]; Dab = NCC[C@H](N)C(=O)O; Ac4c = NC1(C(=O)O)CCC1
Item-by-item account of EC50
Give just the number in nM; leave the unit off.

*Q* So what's the measured EC50 for this one? CCNCCC[C@H](NC(=O)[C@@H]1CCCN1C(=O)[C@@H]1CSSC[C@H](N)C(=O)N[C@@H](Cc2ccccc2)C(=O)N[C@@H]([C@@H](C)CC)C(=O)N[C@@H](CCC(N)=O)C(=O)N[C@@H](CC(N)=O)C(=O)N1)C(=O)NCC(N)=O (H-CFIQNCP[X1]G-NH2; disulfide 1-6)
*A* 0.57

Further cases:
*Q* So what's the measured EC50 for this one? CC[C@H](C)[C@@H]1NC(=O)C2(CCC2)NC(=O)[C@@H](N)CSSC[C@@H](C(=O)N2CCC[C@H]2C(=O)N[C@@H](CCN)C(=O)NCC(N)=O)NC(=O)[C@H](CC(N)=O)NC(=O)[C@H](CC(N)=O)NC1=O (H-C[Ac4c]INNCP[Dab]G-NH2; disulfide 1-6)
*A* 12

*Q* So what's the measured EC50 for this one? CC[C@H](C)[C@@H]1NC(=O)[C@H](Cc2ccco2)NC(=O)[C@@H](N)CSSC[C@@H](C(=O)N2CCC[C@H]2C(=O)N[C@@H](CCCNC(C)C)C(=O)NCC(N)=O)NC(=O)[C@H](CC(N)=O)NC(=O)[C@H](CC(N)=O)NC1=O (H-C[Ala(2-furyl)]INNCP[Orn(iPr)]G-NH2; disulfide 1-6)
*A* 15

* * *

species: Homo sapiens; assay: Selectivity ratio of EC50 for human oxytocin receptor to EC50 for human vasopressin V1a receptor
REPORTED_METRIC: Ratio EC50
Reply: number alone, nothing else.

*Q* So what's the measured Ratio EC50 for this one? "CC[C@H](C)[C@@H]1NC(=O)[C@H](Cc2ccccc2)NC(=O)[C@@H](N)CSSC[C@@H](C(=O)N2CCC[C@H]2C(=O)N[C@@H](CCCNC(C)C)C(=O)NCC(N)=O)NC(=O)[C@H](CC(N)=O)NC(=O)[C@H](CCCC(N)=O)NC1=O"
*A* 450

* * *

species on record: Homo sapiens; experiment: Selectivity ratio of EC50 for human oxytocin receptor to EC50 for human vasopressin V1a receptor
Numbered stars: 1 amine (or outer) side, 2 acyl side, 3 side chain; on linkers, the order of the positions; unused ones are H or OH. Bridge positions count the residues as written; N and C are the ends. Square brackets hold non-standard residues; d marks the D form. Peptide text beside a SMILES is read from it. Orn(Me) = CN(CCC[C@H](N[*:1])C(=O)[*:2])[*:3]; X1 = CCNCCC[C@H](N[*:1])C(=O)[*:2]; 2Thi = N[C@@H](Cc1cccs1)C(=O)O; Dab = NCC[C@H](N)C(=O)O
Item-by-item account of Ratio EC50
Reply: number alone, nothing else.

*Q* So what's the measured Ratio EC50 for this one? CC[C@H](C)[C@@H]1NC(=O)[C@H](Cc2cccs2)NC(=O)[C@@H](N)CSSC[C@@H](C(=O)N2CCC[C@H]2C(=O)N[C@@H](CCN)C(=O)NCC(N)=O)NC(=O)[C@H](CC(N)=O)NC(=O)[C@H](CCC(N)=O)NC1=O (H-C[2Thi]IQNCP[Dab]G-NH2; disulfide 1-6)
*A* 53

*Q* So what's the measured Ratio EC50 for this one? CC[C@H](C)[C@@H]1NC(=O)[C@H](Cc2ccccc2)NC(=O)[C@@H](N)CSSC[C@@H](C(=O)N2CCC[C@H]2C(=O)N[C@@H](CCCNC)C(=O)NCC(N)=O)NC(=O)[C@H](CC(N)=O)NC(=O)[C@H](CCC(N)=O)NC1=O (H-CFIQNCP[Orn(Me)]G-NH2; disulfide 1-6)
*A* 61

We now examine a further compound.
*Q* So what's the measured Ratio EC50 for this one? CCNCCC[C@H](NC(=O)[C@@H]1CCCN1C(=O)[C@@H]1CSSC[C@H](N)C(=O)N[C@@H](Cc2ccccc2)C(=O)N[C@@H]([C@@H](C)CC)C(=O)N[C@@H](CCC(N)=O)C(=O)N[C@@H](CC(N)=O)C(=O)N1)C(=O)NCC(N)=O (H-CFIQNCP[X1]G-NH2; disulfide 1-6)
*A* 56
